- METHOD NOTES: protein stability index of a GFP-peptide fusion (yeast GPS) (PSI 1-4); higher = more stable; sorted into four equal gates, so the index is relative within each strain
- EXPERIMENTAL CONDITIONS: san1∆
sequences and their reported protein stability index
OBSERVATION TYPE: protein stability index

[[record]]
ordered_residues = "NEENDLDVDPAKRIRVS [RPB2]"
observation_type = "protein stability index"
reported_value = 3.11

[[record]]
ordered_residues = "LKRNSWPKTRGVAMNPV [RPL2A]"
observation_type = "protein stability index"
reported_value = 3.2

[[record]]
ordered_residues = "LGGPITKESQPTIEEDL [FAS2]"
observation_type = "protein stability index"
reported_value = 2.77

[[record]]
ordered_residues = "RIVNHKTKLWGFKWLNK [LIN1]"
observation_type = "protein stability index"
reported_value = 2.87

[[record]]
ordered_residues = "AVKKLYAIIINYTKDNE [YCS4]"
observation_type = "protein stability index"
reported_value = 1.93

[[record]]
ordered_residues = "NTGDGSISTYKDILNLA [ECM29]"
observation_type = "protein stability index"
reported_value = 3.04

[[record]]
ordered_residues = "AFSYEQAQLRIDDKTQN [DIS3]"
observation_type = "protein stability index"
reported_value = 2.87

[[record]]
ordered_residues = "QGGFYKQQDAEELFTQL [UBP6]"
observation_type = "protein stability index"
reported_value = 3.07

[[record]]
ordered_residues = "IDPSVTMMTVEEKPDVT [RPT1]"
observation_type = "protein stability index"
reported_value = 1.93

[[record]]
ordered_residues = "TDGVIGSRTTTNHVLEV [RPO31]"
observation_type = "protein stability index"
reported_value = 3.19

[[record]]
ordered_residues = "RFISDLLWLVLIHPENF [SWI1]"
observation_type = "protein stability index"
reported_value = 1.86

[[record]]
ordered_residues = "GPSAMRLSRCIRDNKLV [RPC82]"
observation_type = "protein stability index"
reported_value = 1.58

[[record]]
ordered_residues = "NINFASGVKNDILQSLS [CDC53]"
observation_type = "protein stability index"
reported_value = 1.65

[[record]]
ordered_residues = "RSISWAPSIGRWYQLIA [YGL100W/SEH1]"
observation_type = "protein stability index"
reported_value = 1.16

[[record]]
ordered_residues = "STKELKFSDIIQGISKM [BRN1]"
observation_type = "protein stability index"
reported_value = 3.18

[[record]]
ordered_residues = "IDTSKNLENMSIQDTST [YCG1]"
observation_type = "protein stability index"
reported_value = 2.71

[[record]]
ordered_residues = "GKIEKIAQSKKKNNKIK [SRP21]"
observation_type = "protein stability index"
reported_value = 3.01

[[record]]
ordered_residues = "DSSGVNDLHHSEKKYAE [RPN3]"
observation_type = "protein stability index"
reported_value = 2.88

[[record]]
ordered_residues = "IASTEKPENKTDKVSLS [SIR4]"
observation_type = "protein stability index"
reported_value = 3.17

[[record]]
ordered_residues = "SIKEHSTTMDGANDLGF [MED1]"
observation_type = "protein stability index"
reported_value = 2.15

[[record]]
ordered_residues = "SPMLKRIKITANNNMND [GRR1]"
observation_type = "protein stability index"
reported_value = 1.77

[[record]]
ordered_residues = "VRYEEKRELKQLLEKAP [BRR2]"
observation_type = "protein stability index"
reported_value = 1.89

[[record]]
ordered_residues = "STTEHINIDDLLYELTA [YJL039C/NUP192]"
observation_type = "protein stability index"
reported_value = 2.43

[[record]]
ordered_residues = "PSINLDPDNTSFSDENS [ESC2]"
observation_type = "protein stability index"
reported_value = 2.58

[[record]]
ordered_residues = "LSNSNRFELHGDMTNSD [REC8]"
observation_type = "protein stability index"
reported_value = 2.58

[[record]]
ordered_residues = "GKPSFVFGASDKQAEGT [YOR098C/NUP1]"
observation_type = "protein stability index"
reported_value = 3.07

[[record]]
ordered_residues = "EHHSSVKYASPNLNMKY [FAS2]"
observation_type = "protein stability index"
reported_value = 2.94

[[record]]
ordered_residues = "KKAVKELYEVDVLKVNT [RPL25]"
observation_type = "protein stability index"
reported_value = 3.1

[[record]]
ordered_residues = "IYYDSYIHLAYSRSVDK [SSN2]"
observation_type = "protein stability index"
reported_value = 2.89

[[record]]
ordered_residues = "ALNNAIPGGPKFEPLYP [PRP8]"
observation_type = "protein stability index"
reported_value = 2.95

